Origin of measurements: the supplement of paper PMC10567573

B1: TCEB3B (parent)
chain: STTALGDKQRKANESKGTRESWDS

Variants of: B1
Assay: protein stability index of a GFP-peptide fusion (GPS, HEK-293T) (PSI 1-6); higher = more stable;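 note: lentivirally expressed fusions sorted by FACS into six bins by GFP to DsRed ratio, PSI derived from sequencing read proportions per bin multiplied by bin number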
Conditions: c terminus: a fixed tail appended
Measured quantity: protein stability index
// return a plain number; no unit text

Given S24F , state its recorded protein stability index. 4.38

Given T18L , state its recorded protein stability index. 3.14

Given S1N , state its recorded protein stability index. 4.3

Given G17Q , state its recorded protein stability index. 3.88

Given T3S , state its recorded protein stability index. 3.57
